Experiment: in vivo
Conditions: male, beagle, dog, in vivo, po, 0.5 g/kg
Protocol: After full validation, the LC-ESI-MS/MS method was used to analyze large batches of beagle dog plasma. […] The corresponding pharmacokinetic parameters were generated by fitting plasma concentration profiles to a non-compartmental model. These are summarized in Table 3, expressed as the mean ± SD (n = 5). Quantitative analysis was conducted on a 1290 UPLC-photodiode array 6460 triple quadrupole mass spectrometry system (LC-MS/MS, Agilent Technologies, Palo Alto, CA, USA). Analysis was carried out on. […]
Measured Attribute: AUC(0-inf) (ng·h/mL)
One number for each entry, in ng·h/mL.

Worked cases, answers included:
Compound	AUC(0-inf), ng·h/mL
O=C(CC(O)(CC(=O)OCc1ccc(OC2OC(CO)C(O)C(O)C2O)cc1)C(=O)OCc1ccc(OC2OC(CO)C(O)C(O)C2O)cc1)OCc1ccc(OC2OC(CO)C(O)C(O)C2O)cc1 (stereo not shown)	3280
O=C(CC(O)(CC(=O)OCc1ccc(O[C@@H]2O[C@H](CO)[C@@H](O)[C@H](O)[C@H]2O)cc1)C(=O)O)OCc1ccc(O[C@@H]2O[C@H](CO)[C@@H](O)[C@H](O)[C@H]2O)cc1	1100
OCc1ccc(O[C@@H]2O[C@H](CO)[C@@H](O)[C@H](O)[C@H]2O)cc1	17600

// moving on: another record for AUC(0-inf)
Item O=C(O)CC(O)(CC(=O)OCc1ccc(OC2OC(CO)C(O)C(O)C2O)cc1)C(=O)OCc1ccc(OC2OC(CO)C(O)C(O)C2O)cc1 (stereo not shown) has what recorded AUC(0-inf)?
4720

====

Kindly supply the reported AUC(0-inf) values for the records listed here.
Assay: in vivo
Details: male, beagle, dog, in vivo, po, 0.25 g/kg

Worked cases, answers included:
Compound	AUC(0-inf)
O=C(CC(O)(CC(=O)OCc1ccc(OC2OC(CO)C(O)C(O)C2O)cc1)C(=O)OCc1ccc(OC2OC(CO)C(O)C(O)C2O)cc1)OCc1ccc(OC2OC(CO)C(O)C(O)C2O)cc1 (stereo not shown)	1520 ng·h/mL
OCc1ccc(O[C@@H]2O[C@H](CO)[C@@H](O)[C@H](O)[C@H]2O)cc1	9170 ng·h/mL
O=C(O)CC(O)(CC(=O)OCc1ccc(OC2OC(CO)C(O)C(O)C2O)cc1)C(=O)OCc1ccc(OC2OC(CO)C(O)C(O)C2O)cc1 (stereo not shown)	2720 ng·h/mL

// moving on: another record for AUC(0-inf)
Item O=C(CC(O)(CC(=O)OCc1ccc(O[C@@H]2O[C@H](CO)[C@@H](O)[C@H](O)[C@H]2O)cc1)C(=O)O)OCc1ccc(O[C@@H]2O[C@H](CO)[C@@H](O)[C@H](O)[C@H]2O)cc1 has what recorded AUC(0-inf)?
578 ng·h/mL

====

Assay: in vivo
Settings: male, beagle, dog, in vivo, po, 0.125 g/kg
Kindly supply the reported MRT inf values for the records listed here.
Numbers only, in h.

Worked cases, answers included:
Compound	MRT inf [h]
O=C(CC(O)(CC(=O)OCc1ccc(OC2OC(CO)C(O)C(O)C2O)cc1)C(=O)OCc1ccc(OC2OC(CO)C(O)C(O)C2O)cc1)OCc1ccc(OC2OC(CO)C(O)C(O)C2O)cc1 (stereo not shown)	2
O=C(O)CC(O)(CC(=O)OCc1ccc(OC2OC(CO)C(O)C(O)C2O)cc1)C(=O)OCc1ccc(OC2OC(CO)C(O)C(O)C2O)cc1 (stereo not shown)	2.32
OCc1ccc(O[C@@H]2O[C@H](CO)[C@@H](O)[C@H](O)[C@H]2O)cc1	3.33

// moving on: another record for MRT inf
Item O=C(CC(O)(CC(=O)OCc1ccc(O[C@@H]2O[C@H](CO)[C@@H](O)[C@H](O)[C@H]2O)cc1)C(=O)O)OCc1ccc(O[C@@H]2O[C@H](CO)[C@@H](O)[C@H](O)[C@H]2O)cc1 has what recorded MRT inf?
2.7
